# Tested on: MDA-MB-231
# Assay Info: Antiproliferative activity against human MDA-MB-231 cells after 72 hrs by MTT assay
# Assay type: functional, cell-based
# Test Conditions: MDA-MB-231, 72 h
Listed here: items and their measured IC50.
// units = nM; emit number, no label

C=C1C(=O)[C@@]23C(=O)[C@@H]4OC[C@]5(C=CCC(C)(C)[C@@H]45)[C@@H]2CC[C@@H]1[C@H]3OC(=O)c1ccc(OC)cc1 = 1300
C=C1C(=O)[C@@]23C(=O)[C@@H]4OC[C@]5(C=CCC(C)(C)[C@@H]45)[C@@H]2CC[C@@H]1[C@H]3OC(=O)/C=C/c1ccoc1 = 1280
C=C1C(=O)[C@@]23C(=O)[C@@H]4OC[C@]5(C=CCC(C)(C)[C@@H]45)[C@@H]2CC[C@@H]1[C@H]3OC(C)=O = 960
C=C1C(=O)[C@@]23C(=O)[C@@H]4OC[C@]5(C=CCC(C)(C)[C@@H]45)[C@@H]2CC[C@@H]1[C@H]3OC(=O)/C=C/c1ccncc1 = 630
C=C1C(=O)[C@@]23C(=O)[C@@H]4OC[C@]5(C=CCC(C)(C)[C@@H]45)[C@@H]2CC[C@@H]1[C@H]3OC(=O)/C=C/c1ccc2occc2c1 = 2160

Consider the additional compound presented here.
QUERY: Requested field: IC50. Item: C=C1C(=O)[C@@]23C(=O)[C@@H]4OC[C@]5(C=CCC(C)(C)[C@@H]45)[C@@H]2CC[C@@H]1[C@H]3OC(=O)/C=C/c1ccncc1Cl
RESULT: 640

---

# System: MDA-MB-231
# Assay Info: Antiproliferative activity against human MDA-MB-231 cells after 72 hrs by MTT assay
# Assay type: functional, cell-based
# Test Conditions: MDA-MB-231, 72 h
Kindly apply the following: true if IC50 is less than 1 µM, false in every other case.

Example cases with answers are listed next.
C=C1C(=O)[C@@]23C(=O)[C@@H]4OC[C@]5(C=CCC(C)(C)[C@@H]45)[C@@H]2CC[C@@H]1[C@H]3OC(=O)CCc1ccccc1 = false
C=C1C(=O)[C@@]23C(=O)[C@@H]4OC[C@]5(C=CCC(C)(C)[C@@H]45)[C@@H]2CC[C@@H]1[C@H]3O = false
C=C1C(=O)[C@@]23C(=O)[C@@H]4OC[C@]5(C=CCC(C)(C)[C@@H]45)[C@@H]2CC[C@@H]1[C@H]3OC(=O)/C=C(\C)c1ccccc1 = false
C=C1C(=O)[C@@]23C(=O)[C@@H]4OC[C@]5(C=CCC(C)(C)[C@@H]45)[C@@H]2CC[C@@H]1[C@H]3OC(=O)/C=C/c1cccnc1 = true
C=C1C(=O)[C@@]23C(=O)[C@@H]4OC[C@]5(C=CCC(C)(C)[C@@H]45)[C@@H]2CC[C@@H]1[C@H]3OC(=O)/C=C/c1ccc2ccccc2c1 = false
C=C1C(=O)[C@@]23C(=O)[C@@H]4OC[C@]5(C=CCC(C)(C)[C@@H]45)[C@@H]2CC[C@@H]1[C@H]3OC(=O)C1CC1 = true
C=C1C(=O)[C@@]23C(=O)[C@@H]4OC[C@]5(C=CCC(C)(C)[C@@H]45)[C@@H]2CC[C@@H]1[C@H]3OC(=O)/C=C/c1ccc(F)cc1 = false
C=C1C(=O)[C@@]23C(=O)[C@@H]4OC[C@]5(C=CCC(C)(C)[C@@H]45)[C@@H]2CC[C@@H]1[C@H]3OC(=O)c1ccncn1 = true

QUERY: In the record for C=C1C(=O)[C@]23[C@H](O)[C@H]1CC[C@H]2[C@]12CCCC(C)(C)[C@H]1[C@H](O)[C@@]3(O)OC2 , is IC50 less than 1 µM?
RESULT: false

QUERY: In the record for C=C1C(=O)[C@@]23C(=O)[C@@H]4OC[C@]5(C=CCC(C)(C)[C@@H]45)[C@@H]2CC[C@@H]1[C@H]3OC(=O)/C=C/c1ccnc(Cl)c1 , is IC50 less than 1 µM?
RESULT: false

QUERY: In the record for C=C1C(=O)[C@@]23C(=O)C[C@@H]4C(C)(C)CCC[C@@]4(COC(C)=O)[C@@H]2CC[C@@H]1[C@H]3OC(C)=O , is IC50 less than 1 µM?
RESULT: false

QUERY: In the record for C=C1C(=O)[C@@]23C(=O)[C@@H]4OC[C@]5(C=CCC(C)(C)[C@@H]45)[C@@H]2CC[C@@H]1[C@H]3OC(=O)C=C(C)C , is IC50 less than 1 µM?
RESULT: false

QUERY: In the record for C=C1C(=O)[C@@]23C(=O)[C@@H]4OC[C@]5(C=CCC(C)(C)[C@@H]45)[C@@H]2CC[C@@H]1[C@H]3OC(=O)c1ccc(Cl)cc1 , is IC50 less than 1 µM?
RESULT: false

QUERY: In the record for C=C1C(=O)[C@@]23C(=O)[C@@H]4OC[C@]5(C=CCC(C)(C)[C@@H]45)[C@@H]2CC[C@@H]1[C@H]3OC(=O)c1ccc2ncccc2c1 , is IC50 less than 1 µM?
RESULT: false

QUERY: In the record for C=C1C(=O)[C@@]23C(=O)[C@@H]4OC[C@]5(C=CCC(C)(C)[C@@H]45)[C@@H]2CC[C@@H]1[C@H]3OC(=O)/C=C/c1ccc2c(c1)OCO2 , is IC50 less than 1 µM?
RESULT: false

QUERY: In the record for C=C1C(=O)[C@@]23C(=O)[C@@H]4OC[C@]5(C=CCC(C)(C)[C@@H]45)[C@@H]2CC[C@@H]1[C@H]3OC(=O)C1CCCCC1 , is IC50 less than 1 µM?
RESULT: false

QUERY: In the record for C=C1C(=O)[C@@]23C(=O)[C@@H]4OC[C@]5(C=CCC(C)(C)[C@@H]45)[C@@H]2CC[C@@H]1[C@H]3OC(=O)c1ccc(S(C)(=O)=O)cc1 , is IC50 less than 1 µM?
RESULT: false

QUERY: In the record for C=C1C(=O)[C@@]23C(=O)[C@@H]4OC[C@]5(C=CCC(C)(C)[C@@H]45)[C@@H]2CC[C@@H]1[C@H]3OC(=O)c1cnccn1 , is IC50 less than 1 µM?
RESULT: true

QUERY: In the record for C=C1C(=O)[C@@]23C(=O)[C@@H]4OC[C@]5(C=CCC(C)(C)[C@@H]45)[C@@H]2CC[C@@H]1[C@H]3OC(=O)/C=C/c1ccccc1 , is IC50 less than 1 µM?
RESULT: false

QUERY: In the record for C=C1C(=O)[C@]23[C@H](O)[C@H]1CC[C@H]2[C@]12CCCC(C)(C)[C@H]1C[C@@]3(O)OC2 , is IC50 less than 1 µM?
RESULT: false

QUERY: In the record for C=C1C(=O)[C@@]23C(=O)[C@@H]4OC[C@]5(C=CCC(C)(C)[C@@H]45)[C@@H]2CC[C@@H]1[C@H]3OC(=O)c1ccncc1 , is IC50 less than 1 µM?
RESULT: false

QUERY: In the record for C=C1C(=O)[C@@]23C(=O)[C@@H]4OC[C@@]5([C@H]4C(C)(C)CC[C@@H]5O)[C@@H]2CC[C@@H]1[C@H]3O , is IC50 less than 1 µM?
RESULT: false

QUERY: In the record for C=C1C(=O)[C@@]23C(=O)[C@@H]4OC[C@]5(C=CCC(C)(C)[C@@H]45)[C@@H]2CC[C@@H]1[C@H]3OC(=O)/C=C/c1ccc(OC)cc1 , is IC50 less than 1 µM?
RESULT: false

---

# Tested on: MDA-MB-231
# Assay Info: Antiproliferative activity against human MDA-MB-231 cells after 72 hrs by MTT assay
# Assay type: functional, cell-based
# Test Conditions: MDA-MB-231, 72 h
Listed here: items and their measured pIC50.
The read-out pIC50 is expressed as -log10 of concentration in moles per litre.

QUERY: Requested field: pIC50. Item: C=C1C(=O)[C@@]23C(=O)[C@@H]4OC[C@]5(C=CCC(C)(C)[C@@H]45)[C@@H]2CC[C@@H]1[C@H]3OC(=O)c1ccccc1
RESULT: 5.13

QUERY: Requested field: pIC50. Item: C=C1C(=O)[C@@]23C(=O)[C@@H]4OC[C@]5(C=CCC(C)(C)[C@@H]45)[C@@H]2CC[C@@H]1[C@H]3OC(=O)/C=C/c1ccncc1F
RESULT: 6.07

QUERY: Requested field: pIC50. Item: C=C1C(=O)[C@@]23C(=O)[C@@H]4OC[C@]5(C=CCC(C)(C)[C@@H]45)[C@@H]2CC[C@@H]1[C@H]3OC(=O)c1ccccn1
RESULT: 5.95

QUERY: Requested field: pIC50. Item: C=C1C(=O)[C@@]23C(=O)[C@@H](OC(C)=O)[C@@H]4C(C)(C)CC=C[C@@]4(COC(C)=O)[C@@H]2CC[C@@H]1[C@H]3OC(C)=O
RESULT: 5.43

QUERY: Requested field: pIC50. Item: C=C1C(=O)[C@@]23C(=O)[C@@H]4OC[C@]5(C=CCC(C)(C)[C@@H]45)[C@@H]2CC[C@@H]1[C@H]3OC(=O)/C=C/c1ccc(Cl)cc1
RESULT: 5.79

QUERY: Requested field: pIC50. Item: C=C1C(=O)[C@@]23C(=O)[C@@H]4OC[C@]5(C=CCC(C)(C)[C@@H]45)[C@@H]2CC[C@@H]1[C@H]3OC(=O)c1ccc(F)cc1
RESULT: 5.85

Ref: ChEMBL document CHEMBL4627407
